From: patent US20170190671A1

# System: Italian ryegrass (Lolium multiflorum)
# test-details: Test A postemergence
# Format: in vivo
# cond: Lolium multiflorum, post-emergence, 240 h, 31 g ai/ha, 0 to 100 scale, read-out: Plant response rating, Ryegrass, Italian
readout-label: pest or weed control at 31 g/ha (%)
Record the value in %, omitting the unit from your answer.

[ask] # pest or weed control at 31 g/ha lookup, item Fc1cnc(Oc2c(F)ccc(F)c2Oc2ncc(F)cn2)nc1 [Compound 29]
[reply] 20

[ask] What do we get for N#Cc1cccc(Oc2ncc(Cl)cn2)c1Oc1ccc(Cl)cc1 [Compound 36] ?
[reply] 0

[ask] Next: N#Cc1cccc(Oc2ncc(Cl)cn2)c1Oc1ncc(C(F)(F)F)cn1 [Compound 38]
[reply] 50

[ask] Again, but for FC(F)c1cnc(Oc2c(Br)cccc2Oc2ncc(Cl)cn2)s1 [Compound 10]
[reply] 0

[ask] Please answer likewise for FC(F)c1cccc(Oc2ncc(Br)cn2)c1Oc1ncc(Cl)cn1 [Compound 41]
[reply] 30

[ask] Cool, now Fc1cnc(Oc2c(F)ccc(F)c2Oc2ncc(Cl)cn2)nc1 [Compound 28]
[reply] 0

[ask] Queued: N#Cc1cccc(Oc2ncc(Cl)cn2)c1Oc1cnc(Cl)cn1 [Compound 32]
[reply] 10

* * *

# System: galium (catchweed bedstraw, Galium aparine)
# test-details: Test C preemergence
# Format: in vivo
# cond: Galium, pre-emergence, 336 h; Preemergence, 16 g ai/ha; scale 0 to 100; read-out: Plant response rating, Galium
For each of the compounds below, state its pest or weed control at 16 g/ha.
Number only, in %; omit the unit.

[ask] Enter reported pest or weed control at 16 g/ha observed with galium (catchweed bedstraw, Galium aparine) for Fc1cnc(Oc2c(F)ccc(F)c2Oc2ncc(F)cn2)nc1 [Compound 29]
[reply] 95

[ask] Moving on to Fc1cccc(Oc2ncc(C(F)(F)F)cn2)c1Oc1ncc(Cl)cn1 [Compound 42]
[reply] 95

[ask] Clc1cnc(Oc2cccc(Br)c2Oc2ncc(Cl)cn2)nc1 [Compound 19] ?
[reply] 85

[ask] Ok, now N#Cc1cccc(Oc2ncc(Cl)cn2)c1Oc1cnc(Cl)cn1 [Compound 32]
[reply] 10

* * *

# Test system: velvetleaf (Abutilon theophrasti)
# test-details: Test C preemergence
# Assay type: in vivo
# cond: Abutilon theophrasti, pre-emergence; 125 g ai/ha, preemergence; scale 0 to 100; read-out: Plant response rating, Velvetleaf
Provide the recorded pest or weed control at 125 g/ha for the entries that follow.
Quick note: give the figure in %, leave out the unit.

[ask] So what does the record say about pest or weed control at 125 g/ha for Fc1ccc(F)c(Oc2ncc(Cl)cn2)c1Oc1ncc(Cl)cn1 ?
[reply] 80

[ask] Also Fc1cccc(Oc2ncc(Cl)cn2)c1Oc1ncc(Br)cn1 , if possible.
[reply] 100

[ask] Next compound up: Clc1cnc(Oc2cccc(Br)c2Oc2ncc(Cl)cn2)nc1
[reply] 100

[ask] Param item: Fc1cnc(Oc2c(F)cccc2Oc2ncc(Cl)cn2)nc1
[reply] 100

[ask] Proceed to N#Cc1cccc(Oc2ncc(Cl)cn2)c1Oc1ccc(Br)cn1
[reply] 100

* * *

# System: johnsongrass (Sorghum halepense)
# test-details: Test C preemergence
# Type: in vivo
# cond: Sorghum halepense, pre-emergence, 336 h; 31 g ai/ha, preemergence; scale 0 to 100; read-out: Plant response rating, Johnsongrass
readout-label: pest or weed control at 31 g/ha (%)
Provide only the numeric value, understood in %.

[ask] Reported pest or weed control at 31 g/ha for N#Cc1cccc(Oc2ncc(Cl)cn2)c1Oc1ncc(Cl)cn1 [Compound 3] : what is it?
[reply] 45

[ask] Again, but for Fc1cccc(Oc2ncc(Cl)cn2)c1Oc1ncc(Br)cn1 [Compound 27]
[reply] 25

[ask] Proceed to N#Cc1cccc(Oc2ncc(C(F)(F)F)cn2)c1Oc1ncc(Cl)cn1 [Compound 39]
[reply] 65

[ask] Subsequent entry: Fc1cnc(Oc2c(Cl)cccc2Oc2ncc(Cl)cn2)nc1 [Compound 18]
[reply] 50

[ask] Param item: N#Cc1cccc(Oc2ncc(Br)cn2)c1Oc1ncc(Cl)cn1 [Compound 5]
[reply] 40
